Molecular target: T1, Biotin PSGL-1(42-62) peptide, unmodified (human, C-terminal Lys-biotin)
T1 construct: Residues 42-62 followed by GGGK-biotin; also called WT; wild-type
T1 peptide: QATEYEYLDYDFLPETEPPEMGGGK
Assay: ELISA, immobilized biotin peptide
Procedure: A typical ELISA was performed by coating high binding half-well plates (Corning Cat. #3690) with 3 ug/mL/25 ul per well of biotinylated N-terminal PSGL-1 peptides, which incorporated residues 42 to 62 of the protein, in PBS, pH 7.4, overnight at 4° C. The peptide was unmodified or contained sulfated tyrosine at all 3 tyrosine positions (46, 48, and 51) or at one position (tyr51) (Table 7). PSGL-1 protein or peptide served as a positive control. […]
// values below are reported EC50

# binder, EC50
rows = [
    ("05E08 (antibody, IgG4, V domains shown) VH: EVQLVQSGGGVVQPGRSLRLSCAASGFTFSTYAMHWVRQAPGKGLEWVAVISYDGSNKYYADSVKGRFTISRDNSRNTLFLQMNSLRDEDTAVYYCAKRGTMIRGERSLDFWGQGTLVTVSS VL: AIQMTQSPSFLSASVGDRVTITCRASQGINSWLAWYQQKPGTAPNLLIHAASTLQSGVPSRFSGSRSGTEFTLTISSLQPEDFATYYCQQLQSYPLTFGQGTRLEIK", "> 500 nM"),
    ("19I01 (antibody, V domains shown, From mouse immunisation; only variable domains given; also called 19101) VH: EVQLVESGGGLVKPGGSRKLSCAASGFTFSDYGMHWVRQAPEKGLEWVAYISSGSSTIYYADTVKGRFTISRDNAKNTLFLQMTSLRSEDTAMYYCARGVDGYWGQGTTLTVSS VL: DVVMTQTPLSLPVSLGDQASISCRSSQSLVHSNGNTYLHWYLQKPGQSPKFLIYKVSNRFSGVPDRFSGSGSGTDFTLKISRVEAEDLGVYFCSQTTHVPLTFGAGTKLELK", "0.844 nM"),
    ("03B04 (antibody, IgG4, V domains shown) VH: EVKLLESGGGLVKPGGSLRLSCAASGFAFSRYTMNWVRQAPGKGLEWVSSISSSSSYIYYADSVKGRFTISRDNAKNSLVLQMNSLRPEDTAVYYCARGGIAANDYWGQGTLVTVSS VL: EIVMTQTPLSLPVTLGQPASISCRSSRNLVHYDGNTYLSWFHQRPGQPPRRLIYKISNRESGVPDRFSGSGSGTDFTLKISRVEAEDVGVYYCLQHTHWPWTFGPGTKVEIK", "5.1 nM"),
    ("5E12 (antibody, V domains shown, Mouse hybridoma mAb; only variable domains given) VH: EIQLQQSGAELVRPGASVKLSCTASGFNIKDDYIHWVKQRPEQGLEWIGRIDPANGNTKSAPKFQDKATITADTSSNTAYLHLSSLTSEDTAVYYCSIRFAYWGQGTLVTVSA VL: DVVMTQTPLSLSVSLGDQASISCRSSQSLVYRNGDTYLHWFLQKPGQSPKLLIYKVSNRFSGVPDRFSGSGSGTDFTLKISRVEAEDLGIYFCSQNTHVPYTFGGGTKLEIK", "0.539 nM"),
]

03D07 (antibody, IgG4, V domains shown) VH: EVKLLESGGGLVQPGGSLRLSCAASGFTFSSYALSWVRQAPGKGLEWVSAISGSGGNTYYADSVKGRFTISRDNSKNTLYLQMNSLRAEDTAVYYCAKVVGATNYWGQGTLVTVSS VL: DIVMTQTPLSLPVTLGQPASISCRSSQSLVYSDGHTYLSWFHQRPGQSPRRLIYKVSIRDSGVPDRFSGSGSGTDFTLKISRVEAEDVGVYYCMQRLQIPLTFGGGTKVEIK yielded EC50 of > 500 nM
